Tested on: U2OS
Assay: Incucyte cell viability with U2OS; note: unitless GR value; below 1 slowed growth and below 0 cell loss
Type: toxicity, cell-based
Conditions: human, 24 h, 10 µM, compound concentration 10 uM, replicate number 2
For each record, check the reported Growth Rate: if it is below 0.9 write true (1), else write false (0).

[[record]]
molecule = "O=C(O)CNC(=O)c1c(O)c2ccccc2n(Cc2ccccc2)c1=O"
system_tested = "U2OS"
class_name = "false (0)"

[[record]]
molecule = "CCCNc1ccc2ncc(-c3ccncc3)n2n1"
system_tested = "U2OS"
class_name = "true (1)"

[[record]]
molecule = "O=C(Cc1ccccc1)Nc1nnc(N2C[C@H]3C[C@@H]2CN3c2cccnn2)s1"
system_tested = "U2OS"
class_name = "true (1)"

[[record]]
molecule = "Cc1cc2nc(N3CCC(C(=O)NC4CCCC4)CC3)n(C(C)C)c2cc1C"
system_tested = "U2OS"
class_name = "true (1)"

[[record]]
molecule = "O=S(=O)(Nc1nncs1)c1cc(Cl)c(Oc2ccc(C(F)(F)F)cc2-c2ccnn2C2CNC2)cc1F"
system_tested = "U2OS"
class_name = "false (0)"

[[record]]
molecule = "CC[C@H](CC(=O)O)n1c(=O)c2ncccc2n(Cc2cn(C)c3cc(C)cc(C)c23)c1=O"
system_tested = "U2OS"
class_name = "true (1)"

[[record]]
molecule = "Cc1cc2c(cc(C(=O)N[C@H](CO)c3ccc(S(=O)(=O)CC(=O)O)cc3)n2C)c(Cl)c1Cl"
system_tested = "U2OS"
class_name = "false (0)"

[[record]]
molecule = "COc1ccc(-c2coc3cc(O)cc(O)c3c2=O)cc1"
system_tested = "U2OS"
class_name = "false (0)"

[[record]]
molecule = "C=C1/C(=C\\C=C2/CCC[C@]3(C)[C@@H]([C@H](C)CCCC(C)(C)O)CC[C@@H]23)C[C@@H](O)C[C@@H]1O"
system_tested = "U2OS"
class_name = "true (1)"

[[record]]
molecule = "O=C1NCCSc2c1sc1ccc(O)cc21"
system_tested = "U2OS"
class_name = "true (1)"

[[record]]
molecule = "Cc1ccc2c(N)c(C(=O)NC3CCc4cc(N5CC6CCC(C5)N6)ccc4C3)sc2n1.O=CO (stereo not drawn)"
system_tested = "U2OS"
class_name = "true (1)"

[[record]]
molecule = "Cn1c(C2(NC(=O)c3ccc4c(C5CCCC5)c(-c5ncc(Br)cn5)n(C)c4c3)CCC2)nc2ccc(/C=C/C(=O)[O-])cc21.[Na+] [DELEOBUVIR SODIUM]"
system_tested = "U2OS"
class_name = "false (0)"

[[record]]
molecule = "CCN1CCN(Cc2ccc(Nc3ncc(F)c(-c4cc(F)c5nc(C)n(C(C)C)c5c4)n3)nc2)CC1"
system_tested = "U2OS"
class_name = "true (1)"

[[record]]
molecule = "Cc1nnc2n1-c1sc3c(c1C(c1ccccc1Cl)=NC2)C[C@H](C(=O)N1CCOCC1)C3"
system_tested = "U2OS"
class_name = "false (0)"

[[record]]
molecule = "Cc1onc(O)c1CC(N)C(=O)O [(R,S)-AMPA]"
system_tested = "U2OS"
class_name = "false (0)"

[[record]]
molecule = "CNc1nc(NCc2ncccn2)c2c(-c3ccc4ncccc4c3)c[nH]c2n1"
system_tested = "U2OS"
class_name = "true (1)"

[[record]]
molecule = "C[C@H](NC(=O)c1cc(Cl)ccc1Oc1ccc(F)cc1)c1ccc(C(=O)O)cc1"
system_tested = "U2OS"
class_name = "false (0)"

[[record]]
molecule = "O=C(O)C[C@H]1CC[C@H](c2ccc(NC(=O)c3nnc(Nc4ccc(F)c(F)c4)o3)cc2)CC1"
system_tested = "U2OS"
class_name = "false (0)"


====

Test system: HEK-293T
Test: Incucyte cell viability with HEK293T; note: unitless GR value; below 1 slowed growth and below 0 cell loss
Format: toxicity, cell-based
Conditions: human, 6 h, 10 µM, compound concentration 10 uM, replicate number 1
Returns one of true (1) or false (0); true (1) when Growth Rate is >= 0.1.

[[record]]
compound = "Cn1nccc1-c1ccc(Sc2cccc(C3(C(N)=O)CCOCC3)c2)cc1 [PF-4191834]"
system_tested = "HEK-293T"
class_name = "false (0)"

[[record]]
compound = "Cn1nc(-c2ccc(C(N)=O)cc2)c2ccccc2c1=O"
system_tested = "HEK-293T"
class_name = "true (1)"

[[record]]
compound = "Nc1ncnc2c1ccn2[C@@H]1O[C@H]([C@@H](O)c2ccccc2)[C@@H](O)[C@H]1O"
system_tested = "HEK-293T"
class_name = "true (1)"

[[record]]
compound = "COc1cc(OC)cc(-c2cc3cnc(N)nc3nc2NC(=O)NC(C)(C)C)c1"
system_tested = "HEK-293T"
class_name = "true (1)"

[[record]]
compound = "c1cc(-c2cnn3cc(-c4ccc(N5CCNCC5)cc4)cnc23)c2cccnc2c1"
system_tested = "HEK-293T"
class_name = "false (0)"


====

System: U2OS
Assay: Incucyte cell viability with U2OS; note: unitless GR value; below 1 slowed growth and below 0 cell loss
Type: toxicity, cell-based
Settings: human, 0 h, 10 µM, compound concentration 10 uM, replicate number 1
For each record, check the reported Growth Rate: if it is below -0.05 write t, else write f.

[[record]]
molecule = "CN(C)CCCn1cc(C2=C(c3c[nH]c4ccccc34)C(=O)NC2=O)c2ccccc21"
system_tested = "U2OS"
class_name = "f"

[[record]]
molecule = "CN(C)[C@H]1CC[C@H](Nc2ncc3ncnc(Nc4ccc(F)c(Cl)c4)c3n2)CC1"
system_tested = "U2OS"
class_name = "t"

[[record]]
molecule = "COCCOCn1c(S(C)(=O)=O)nc2c1c(=O)n(C)c(=O)n2C"
system_tested = "U2OS"
class_name = "f"

[[record]]
molecule = "CCN1C(=O)/C(=C(\\NC2CCN(C)CC2)c2ccc3c(c2)OCO3)c2cc(C(C)=O)ccc21"
system_tested = "U2OS"
class_name = "f"

[[record]]
molecule = "COCCNC1CCC(Nc2cc(-c3csc(NCC4(C#N)CCOCC4)n3)c(Cl)cn2)CC1 (centres undefined)"
system_tested = "U2OS"
class_name = "t"

[[record]]
molecule = "C[S+]([O-])c1ccc(-c2nc(-c3cccc(I)c3)c(-c3ccncc3)[nH]2)cc1 (centres undefined)"
system_tested = "U2OS"
class_name = "t"

[[record]]
molecule = "CN1CCN(c2nc(C3=C(c4c[nH]c5ccccc45)C(=O)NC3=O)c3ccccc3n2)CC1"
system_tested = "U2OS"
class_name = "t"

[[record]]
molecule = "CC[N+](CC)(CC)CCOc1ccc(/C=C/c2ccccc2)cc1.[I-] [STILONIUM IODIDE]"
system_tested = "U2OS"
class_name = "t"


====

Test system: Fibroblast
Experiment: Incucyte cell viability with human fibroblast; note: unitless GR value; below 1 slowed growth and below 0 cell loss
Type: toxicity, cell-based
Conditions: 12 h, 10 µM, compound concentration 10 uM, replicate number 2
ENDPOINT_LABEL: Growth Rate

[[record]]
compound = "Cn1nc(-c2ccc(C(N)=O)cc2)c2ccccc2c1=O"
endpoint_label = "Growth Rate"
quantitative_readout = 0.65

[[record]]
compound = "C[C@@H](Cn1c(=O)[nH]/c(=N\\c2ccc(Oc3ccccn3)cc2)n(Cc2ccc(Cl)cc2)c1=O)C(=O)O"
endpoint_label = "Growth Rate"
quantitative_readout = 0.04

[[record]]
compound = "Cc1cccc(F)c1C(=O)Nc1cnc(-c2cc3c(cc2Cl)OC(F)(F)O3)cn1 [ZEGOCRACTIN]"
endpoint_label = "Growth Rate"
quantitative_readout = 0.2

[[record]]
compound = "CC(C)[C@H](C(=O)Nc1ccc(C(=O)NO)cc1)c1ccccc1 [AR-42]"
endpoint_label = "Growth Rate"
quantitative_readout = 0.61

[[record]]
compound = "CCOc1cc(CC(=O)N[C@@H](CC(C)C)c2ccccc2N2CCCCC2)ccc1C(=O)O [REPAGLINIDE]"
endpoint_label = "Growth Rate"
quantitative_readout = 0.38

[[record]]
compound = "COc1cc(-c2cc3ncccc3c(O[C@@H](C)[C@H]3CNC(=O)C3)n2)cc(OC)c1OC"
endpoint_label = "Growth Rate"
quantitative_readout = 0.62

[[record]]
compound = "COc1cc(C(=O)NC2CCN(C)CC2)ccc1Nc1ncc(C(F)(F)F)c(NCc2ccc(C)cc2N(C)S(C)(=O)=O)n1.O=CO.O=CO"
endpoint_label = "Growth Rate"
quantitative_readout = -0.43

[[record]]
compound = "CO[C@H]1C[C@@H]2CC[C@@H](C)[C@@](O)(O2)C(=O)C(=O)N2CCCC[C@H]2C(=O)O[C@H]([C@H](C)C[C@@H]2CC[C@@H](O)[C@H](OC)C2)CC(=O)[C@H](C)/C=C(\\C)[C@@H](O)[C@@H](OC)C(=O)[C@H](C)C[C@H](C)/C=C/C=C/C=C/1C [SIROLIMUS]"
endpoint_label = "Growth Rate"
quantitative_readout = 0.93


====

Test system: Fibroblast
Assay: Incucyte cell viability with human fibroblast; note: unitless GR value; below 1 slowed growth and below 0 cell loss
Assay type: toxicity, cell-based
Settings: 0 h, 10 µM, compound concentration 10 uM, replicate number 2
ENDPOINT_LABEL: Growth Rate

[[record]]
compound = "Cn1c(C(=O)N[C@@H](CO)c2ccc(C(=O)O)cc2)cc2cc(Cl)ccc21"
result = 0.3

[[record]]
compound = "COc1cc(Oc2nc(-c3ccc(NC(=O)C4CCOC4)cc3)nn3c(C)nc(C)c23)cc(OC)c1OC (stereo not given)"
result = 0.03

[[record]]
compound = "CN(C)CCOc1ccc(/C(=C(/CCCO)c2ccccc2)c2ccc(O)cc2)cc1"
result = -0.4

[[record]]
compound = "Cn1cnc(Cn2ccc3ccc(CNCc4[nH]c5ccccc5c4[C@H]4NC(=O)c5ccc(O)cc54)cc32)c1"
result = -0.84

[[record]]
compound = "O=C(Nc1cc(C(F)(F)F)cc(C(F)(F)F)c1)c1cc(Cl)ccc1O"
result = -0.02

